assay: Human HepG2 cell viability assay in 384 well format; format: toxicity, cell-based; design: dose 125 nL, time 70.5 hour; concentration not given beside the values; conditions: HepG2 cells, read-out: Inhibition
I'd appreciate it if you could supply cytotoxicity at 70.5 h values for the items below.
One number for each entry, in %.

Examples with their reported cytotoxicity at 70.5 h follow.
* COCCS(=O)(=O)Cc1csc(NC(C)=O)n1 | -16
* COCCCN(Cc1cnc(-c2ccccn2)nc1)C1CCN(C)CC1 | -22.2
* CC(C)N1CCCC2(CCN(C(=O)CCCn3cccn3)C2)C1=O (centres undefined) | 6.53
* CCN1CCN(C(C)CNC(=O)Nc2nnc(C(C)C)s2)CC1 (centres undefined) | -12.4
* CC(=O)NCCc1cc2nc(-c3ccncc3)ccn2n1 | -4.37
* NC(=O)C1CCN(C(=O)c2ccn(-c3ccc(F)cc3)n2)CC1 | 7.95
* Cc1noc(C)c1C(=O)N1CCCCC1c1cc(C)n2ccnc2n1 (centres undefined) | -10.1
* COc1ccc2c(c1)c(-c1nc(N(C)C)ncc1CN)cn2C | 12.9
* O=C1C[C@H]2[C@@H](CCN2Cc2ccccn2)N1CCN1CCOCC1 | 6.45
* CCc1noc(C)c1C(=O)N1CCCC1c1c(C)nn(C)c1OC (centres undefined) | 18

Take each entry in turn and give its cytotoxicity at 70.5 h.
1. CC(C)(C)OC(=O)N(CCNS(=O)(=O)N1CCOCC1)C1CC1
2. CCCc1ncc(CNC2(c3ccc(Cl)cc3)CCC2)cn1

Data returned:
1. -3.4
2. -4.55

Could I get cytotoxicity at 70.5 h for every one of these entries?
1. Cc1csc(CCNC(=O)C2CCCN(C3CCOCC3)C2)n1 (centres undefined)
2. CCNC(=O)[C@@H]1C[C@@H](NC(=O)c2cnc[nH]c2=O)CN1Cc1ccsc1
3. CCc1nn(C)c(Cl)c1CN1CCN(c2ccc(C(N)=O)cn2)CC1

Data returned:
[-11.1, -2.36, -8.09]

Need cytotoxicity at 70.5 h for each of these compounds.
1. CN(C)CCNc1cc(-c2ncccn2)c2cc[nH]c2n1
2. CS(=O)(=O)CCNC(=O)c1cc2ccccc2nc1N1CCCC1
3. Cc1ncsc1C(=O)N(C)Cc1cccc(Cl)c1
4. COc1cccc(N2CC3(CCN(C(=O)NC(C)C)C3)CC2=O)c1 (centres undefined)
5. CN(C)[C@@H]1CO[C@H](CNC(=O)Nc2ccccc2)[C@H]1O
6. COc1ccc(C2CCCN2Cc2nnnn2C2CC2)cc1OC (centres undefined)

Data returned:
1: -6.11; 2: -7.07; 3: 9.51; 4: -7.02; 5: -1.04; 6: -0.63

Take each entry in turn and give its cytotoxicity at 70.5 h.
1. CCN(CC)C(=O)Nc1cc2c(cc1SC)OCCO2
2. O=C(c1ccc[nH]1)N1CCc2onc(COc3cccnc3)c2C1
3. CN(C)C(=O)C1(C)CN(Cc2cn(C)c3ccccc23)CCO1 (centres undefined)

Data returned:
1: -6.83; 2: -4.03; 3: -4.04

###

test: Human HepG2 cell viability assay in 384 well format; format: toxicity, cell-based; parameters: dose 125 nL, time 70.5 hour; concentration not given beside the values; conditions: HepG2 cells, read-out: Inhibition
Kindly state cytotoxicity at 70.5 h for each of the entries shown.
Numbers only, in %.

Some molecules with known cytotoxicity at 70.5 h results, for comparison:
* CCC(CC)CN1CCC2(CCC(=O)N2OCc2ccccc2F)CC1 | 21.6
* CC(C)c1nnc(NC(=O)N(C)Cc2ccncc2)s1 | -9.39
* COc1cccc(CCCNC(=O)N2CCC(O)(C(F)(F)F)C2)c1 (stereo unspecified) | -2.72
* O=C(CCCn1nnc(-c2ccc(F)cc2)n1)N1CCOCC(CO)C1 (stereo unspecified) | 23.7
* CC(O)CN1CCN(C(=O)CCOC(C)C)CC1 (stereo unspecified) | -3.79
* Cc1nc(C2CCCCN2C(=O)c2ccccc2)ncc1C(=O)N(C)C (stereo unspecified) | -12
* Cc1ccsc1C(Cc1ccccc1)NC(=O)CNC(=O)C1CC1 (stereo unspecified) | -3.91
* c1cncc(-c2noc(CNc3ncnc4c3CCNCC4)n2)c1 | -5.95

State the recorded cytotoxicity at 70.5 h for every item in the following list.
1. CCCn1nc2c(cc1=O)CN(CCCS(N)(=O)=O)CC2
2. Cc1cc(C)n2nc(CC(=O)N3CC[C@H]4NCCC[C@]4(CO)C3)nc2n1

Data returned:
[3.74, -3.3]

Data request: Fill in the blank: the reported cytotoxicity at 70.5 h of `CN(C)C(=O)N1CCCn2nc(CNC(=O)CCc3cccs3)cc2C1` is ____.
Data returned: 0.772
